- Test system: SF-295 CNS
- test_protocol: NCI tumour cell line growth inhibition, 48 h
Reported TGI values for the following compounds.
The answer is to be given in µM; state only the numeric part.

Take a look at these entries with their results.
mol_smiles	TGI / µM
Cc1cccc(NC(=O)c2cccc([N+](=O)[O-])c2O)c1C	80.1
O=C1c2ccccc2-c2c1c1ccccc1c(=O)n2CCCn1ccnc1	2.99
C[N+]1=C(/C=C\C=C\c2ccccc2)C(C)(C)c2ccccc21	24.6

Please turn your attention to the following entry.
Prompt: Hello, please tell me recorded TGI for this one: CCN1CCN(CC(=O)N2c3cccc4cccc(c34)N(C(=O)CN3CCN(CC)CC3)C2c2cn(-c3ccccc3)nc2-c2cccc([N+](=O)[O-])c2)CC1
Response: 3.44
